These entries and their values trace back to PubChem BioAssay.

# Assay details: CREB reporter modulators under forskolin, primary screen, cell-based, PC12, CRE-LacZ reporter, forskolin-stimulated (AID 1146);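 further: PC12 cells with 6xCRE LacZ reporter stimulated by forskolin 10 µM; beta-galactosidase reporter signal reflecting CREB driven transcription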
# Recorded conditions: luminescence, 4.5 h, higher = more signal, called active from +8 up or from −8 down
Label rule, in plain words: z-score of 0.3 and up is satisfied, under 0.3 is not satisfied.

Here's what some known entries look like.
compound=C=CCOC(=O)[C@H]1[C@@H]2C(=O)O[C@@H](c3ccccc3)[C@@H](c3ccccc3)N2[C@@H](c2ccc(OCCOC(=O)[C@H]3C[C@H]4C(=O)N[C@@H](Cc5ccccc5)C(=O)N4[C@H]3c3cccc(OCCO)c3)cc2)[C@]12C(=O)Nc1ccc(I)cc12 group="not satisfied"
compound=NC(=O)NCC#Cc1ccc2c(c1)[C@]1(C(=O)N2)[C@H](c2ccc(O)cc2)N2[C@H](c3ccccc3)[C@H](c3ccccc3)OC(=O)[C@H]2[C@@H]1C(=O)Nc1nc2ccccc2s1 group="not satisfied"
compound="CN1C(=O)C2C=CC(C(O)C3CCCCC3)N(N3CCCCC3)C2C1=O (configuration not stated)" group="not satisfied"
compound=CCOC(=O)[C@H]1C/C=C/C[C@H](C(=O)OCC)C(=O)O[C@H]2[C@@H](OC)O[C@H](CO)[C@@H](OC(=O)Nc3ccc(OC)cc3)[C@@H]2OC1=O group="not satisfied"

From here, focus on the item given below.
Query string: Does `C=C(CCCC)C(=O)CC[C@@H](OC(=O)c1cccnc1)c1ccccc1OCCO` have a reported z-score of at least 0.3?
Result string: satisfied
